The measured values listed here are drawn from ChEMBL document CHEMBL5252631.

# Activity values compiled below
# method_description: Substrate activity at ADH105 (unknown origin) assessed as specific enzyme activity using NADH as cofactor at 2.5 to 10 mM measured for 30 mins in presence of 20% hexane-Tris HCL buffer by UV-Vis spectroscopy analysis
# condition_label: dose 2.5-10 mM
Report the value in nmol/min/mg with no unit label.

Recorded results for 2 compounds are shown here.
chem_smiles | Activity (nmol/min/mg)
CC(=O)c1ccc(C(F)(F)F)nc1 | 210
CC(=O)c1ccccc1 | 99.1

Suppose we examine the compound O=c1[nH]c(=O)c2nc[nH]c2[nH]1 ; what Activity value has been reported?
15.9

Entry to check: O=C(c1ccccc1)C(F)(F)F
29.4

Entry to check: COc1ccc2[nH]cc(CCNC(C)=O)c2c1
21.7

Entry to check: CC(=O)c1ccc(Br)cc1O
27.2

Entry to check: COc1ccc(C(C)=O)cc1OC
220

Entry to check: COc1ccc2c(c1)CCCC2=O
36

Entry to check: COc1ccc(C(C)=O)cc1
221

Entry to check: CC(=O)c1ccc2ccccc2c1
54

Entry to check: CC(=O)C1CCCCC1
112

Entry to check: CC(=O)c1cccc(C#N)c1
173
